Source listed as patent US20260242478A1.

system under test: Anti-CD28 Fab (SEQ ID NOs: 696, 697)
Sequence (VH, as listed by the source, chain 1 of 2): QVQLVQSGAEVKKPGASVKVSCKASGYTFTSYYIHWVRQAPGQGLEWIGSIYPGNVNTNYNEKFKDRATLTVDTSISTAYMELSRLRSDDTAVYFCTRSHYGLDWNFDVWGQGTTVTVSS
Sequence (VL, as listed by the source, chain 2 of 2): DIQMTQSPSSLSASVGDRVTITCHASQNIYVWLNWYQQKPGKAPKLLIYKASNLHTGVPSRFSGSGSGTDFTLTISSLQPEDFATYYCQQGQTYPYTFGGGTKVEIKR
procedure details: phage ELISA; Fab-coated wells pre-incubated with CD28 antigen as competitor, anti-M13 HRP detection;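 note: crude clonal phage supernatants screened by ELISA, comparing wells pre-treated with CD28 antigen in blocker against wells given blocker only, bound phage read via HRP-linked anti-M13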
assay endpoint: Anti-CD28 Fab signal in the presence of CD28 (phage binding ELISA)
Please state the value as a number alone, without comment.

Summary for this binder, YCDGHSKEYMAKCL (Tested as clonal phage supernatant) [Phage-1096] : Anti-CD28 Fab signal in the presence of CD28 (phage binding ELISA) is 0.06

For record YCEGHMEKYMEKCL (Tested as clonal phage supernatant) [Phage-1091] the listed Anti-CD28 Fab signal in the presence of CD28 (phage binding ELISA) is 0.11

Query YCDGHLLQYMHKCL (Tested as clonal phage supernatant) [Phage-1094] yields Anti-CD28 Fab signal in the presence of CD28 (phage binding ELISA) of 0.07

Value of measured Anti-CD28 Fab signal in the presence of CD28 (phage binding ELISA) for the entry YCEGHSPEYMHKCL (Tested as clonal phage supernatant) [Phage-1097] : 0.09

get_value(item= YCAGHVDQYLWKCL (Tested as clonal phage supernatant) [Phage-1099] , readout=Anti-CD28 Fab signal in the presence of CD28 (phage binding ELISA)) returns 0.06

Memo: YCAGHASEYMAKCL (Tested as clonal phage supernatant) [Phage-1100] , reported Anti-CD28 Fab signal in the presence of CD28 (phage binding ELISA): 0.08

Value of Anti-CD28 Fab signal in the presence of CD28 (phage binding ELISA) reported for the binder YCDGHSEEFMWKCL (Tested as clonal phage supernatant) [Phage-1090] is 0.06

# Anti-CD28 Fab signal in the presence of CD28 (phage binding ELISA) of YCDGHSEAYIEKCL (Tested as clonal phage supernatant) [Phage-1098] = 0.06
